assay: Selectivity index, ratio of CC50 for human HeLa-RW cells to EC50 for Poliovirus 3; assay type: toxicity; conditions: read-out: Ratio CC50/EC50
Measured Attribute: selectivity ratio

Here are 2 compounds together with their reported answers.
CC(C)n1ncc2c(C(=O)Nc3cncnc3)cc(-c3cccs3)nc21 :: 1.8
CC(C)n1ncc2c(C(=O)N3CCc4cc(F)ccc43)cc(-c3cccs3)nc21 :: 1.9

Which value of selectivity ratio has been reported for `CC(C)n1ncc2c(C(=O)Nc3cc(S(N)(=O)=O)ccc3F)cc(-c3cccs3)nc21` in the records?
2.9

----------
assay: Selectivity index, ratio of CC50 for human HeLa-RW cells to EC50 for Coxsackievirus B3; type: toxicity; details: read-out: Ratio CC50/EC50
Measured Attribute: selectivity ratio
// no unit string in output, number only

CC(C)n1ncc2c(C(=O)Nc3ccccc3S(N)(=O)=O)cc(-c3cccs3)nc21 :: 3.8
CC(C)n1ncc2c(C(=O)Nc3cncnc3)cc(-c3cccs3)nc21 :: 25.7
CC(C)n1ncc2c(C(=O)Nc3ccccn3)cc(-c3ccccc3)nc21 :: 11.8

Reported selectivity ratio, molecule `CC(C)n1ncc2c(C(=O)Nc3ccccn3)cc(C3CC3)nc21` : ____
5.3

Entry `CC(C)n1ncc2c(C(=O)N3CCc4cc(F)ccc43)cc(-c3cccs3)nc21` has what selectivity ratio?
9.9

Quick one: selectivity ratio for `CC(C)n1ncc2c(C(=O)N3CCc4cccnc43)cc(-c3cccs3)nc21` ?
4

Recorded selectivity ratio of `CC(C)n1ncc2c(C(=O)Nc3cccc(S(N)(=O)=O)c3)cc(-c3cccs3)nc21` , please.
167

Requested field: selectivity ratio. Item: `CC(C)n1ncc2c(C(=O)Nc3ccncc3)cc(-c3cccs3)nc21`
10
